Recorded values, source PubChem BioAssay (NCATS).

# targetSystem: Voltage-gated inwardly rectifying potassium channel KCNH2 (Homo sapiens) (UniProt Q12809)
# Sequence (Q12809 whole entry, looked up): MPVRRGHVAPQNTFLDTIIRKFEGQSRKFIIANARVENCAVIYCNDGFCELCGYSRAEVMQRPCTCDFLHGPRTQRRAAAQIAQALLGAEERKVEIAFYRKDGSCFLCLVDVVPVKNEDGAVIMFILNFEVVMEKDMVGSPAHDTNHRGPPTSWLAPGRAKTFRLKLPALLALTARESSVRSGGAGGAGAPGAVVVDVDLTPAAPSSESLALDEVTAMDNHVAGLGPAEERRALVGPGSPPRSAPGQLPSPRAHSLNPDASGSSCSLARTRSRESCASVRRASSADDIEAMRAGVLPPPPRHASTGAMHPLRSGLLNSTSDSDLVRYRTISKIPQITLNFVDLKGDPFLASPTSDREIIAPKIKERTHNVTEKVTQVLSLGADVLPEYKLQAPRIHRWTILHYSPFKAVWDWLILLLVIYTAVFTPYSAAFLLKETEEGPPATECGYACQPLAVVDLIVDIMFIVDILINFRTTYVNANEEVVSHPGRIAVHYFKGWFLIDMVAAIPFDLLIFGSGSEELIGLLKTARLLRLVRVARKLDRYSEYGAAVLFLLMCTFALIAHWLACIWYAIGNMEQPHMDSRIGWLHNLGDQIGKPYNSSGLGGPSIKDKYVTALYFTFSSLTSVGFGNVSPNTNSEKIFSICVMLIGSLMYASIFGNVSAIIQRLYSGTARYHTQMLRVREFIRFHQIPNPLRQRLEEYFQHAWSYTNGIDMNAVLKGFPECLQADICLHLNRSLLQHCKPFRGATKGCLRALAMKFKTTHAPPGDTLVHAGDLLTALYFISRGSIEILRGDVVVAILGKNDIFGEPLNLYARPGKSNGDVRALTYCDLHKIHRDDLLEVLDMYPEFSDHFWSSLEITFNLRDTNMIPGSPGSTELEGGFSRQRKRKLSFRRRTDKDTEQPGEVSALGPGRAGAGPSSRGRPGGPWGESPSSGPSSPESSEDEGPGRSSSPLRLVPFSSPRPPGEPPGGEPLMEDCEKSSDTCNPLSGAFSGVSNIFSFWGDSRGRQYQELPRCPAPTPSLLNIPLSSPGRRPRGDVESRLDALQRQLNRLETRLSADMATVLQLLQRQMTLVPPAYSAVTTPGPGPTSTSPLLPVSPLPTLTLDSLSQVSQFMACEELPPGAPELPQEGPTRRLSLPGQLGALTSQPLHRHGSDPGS
# method: qHTS Assay for Small Molecule Inhibitors of the Human hERG Channel Activity (AID 588834);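 also: U2OS cells transduced with hERG by BacMam; top concentration of the series differs between compounds; lower thallium flux fluorescence means stronger hERG block; nearly all actives have a fitted effect of over 50% in size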
# details: U2OS BacMam hERG, FluxOR thallium flux fluorescence; series mostly up to 46.1 µM
Results filed as inconclusive are left out. Calls of active or inactive are those of the source. Calls follow the shape of the dose curve; as a rule, active = well fitted inhibition curve with a large enough effect; inconclusive = small, poorly fitted or top-dose-only effect; inactive = flat fitted curve, though single readings scatter.
reportedMetric: outcome

structureNotation: CN1CCN(C(=O)O[C@H]2c3nccnc3C(=O)N2c2ccc(Cl)cn2)CC1
recordedMeasurement: inactive
--
structureNotation: CCCN1CCC[C@@H]2Cc3nc(N)ncc3C[C@H]21
recordedMeasurement: inactive
--
structureNotation: CC(=O)Nc1cc([As](=O)(O)O)ccc1O
recordedMeasurement: inactive
